Assay: FLuc inhibitory activity for the follow-up compounds in a cell-based translational read-through assay
Settings: GripTite 293 FLucUGA read-through, luminescence, 48 h; series mostly up to 38.3 µM
Records with an inconclusive call do not appear. Calls of active or inactive are those of the source. Calls follow the shape of the dose curve; as a rule, active = well fitted activation curve with a large enough effect; inconclusive = small, poorly fitted or top-dose-only effect; inactive = flat fitted curve, though single readings scatter.
Select the correct class. Options are active, inactive and nothing else.

Each molecule tested received a call. Report the one for `O=C(Nc1ccccc1C(=O)O)c1cccc(S(=O)(=O)N2CCCC2)c1` .
inactive

# iterate: `CN(C)S(=O)(=O)c1ccc(C(=O)Nc2ccccc2C(=O)O)cc1`
inactive

# iterate: `Nc1ccc2nc(-c3ccccc3)sc2c1`
active

# iterate: `CN=c1scc(-c2ccccc2F)n1/N=C/c1ccc[nH]1`
active

# iterate: `COc1ccc(-c2nc3ccccc3s2)cc1NC(=O)c1ccc(F)cc1`
inactive

# iterate: `CCOc1ccc2nc(NC(=O)c3cccnc3)sc2c1`
active

# iterate: `C/C(=N\NC(=O)c1ccccc1NC(=O)c1ccc(Cl)cc1)c1ccncc1`
active

# iterate: `Oc1ccc(-c2nc3ccccc3s2)c(O)c1`
active
